test system: Musca domestica; test: Filter paper/sucrose bait test against female Musca domestica; assay type: in vivo; details: 500 ppm test solution, 0.7 mL on filter paper; 10 female Musca domestica; after 24 hours; read-out: mortality rate
Entries and their measured mortality at 500 ppm follow.
attribute measured: mortality at 500 ppm

{"columns": ["compound", "assayed system", "value observed"],
 "data": [
  ["CC(c1ccc(C(F)(F)F)nc1)S(=O)(=O)CCC(F)(F)F (stereo not drawn)", "Musca domestica", "≥ 90%"],
  ["O=S(=O)(CCC(F)(F)F)Cc1ccc(C(F)(F)F)nc1", "Musca domestica", "≥ 90%"],
  ["CC(SCCC(F)(F)F)c1ccc(C(F)(F)F)nc1 (stereo not drawn)", "Musca domestica", "≥ 90%"]
]}

FYI, the data here is from patent US8263628B2.
